# Test Target: plasma kallikrein (Homo sapiens, UniProt P03952)
# Construct: from tissue; host or cells: sodium citrate collected human plasma (78% final)
# Sequence (P03952 391-638 limits assumed): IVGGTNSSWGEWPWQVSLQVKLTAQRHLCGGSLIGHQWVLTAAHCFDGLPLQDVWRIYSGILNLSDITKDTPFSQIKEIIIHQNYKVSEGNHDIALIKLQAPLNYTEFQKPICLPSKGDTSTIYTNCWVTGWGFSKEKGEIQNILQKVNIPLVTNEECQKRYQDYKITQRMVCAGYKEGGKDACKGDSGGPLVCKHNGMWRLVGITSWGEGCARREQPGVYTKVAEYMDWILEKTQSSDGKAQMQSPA
# Sequence (P03952 20-390 partner limits assumed): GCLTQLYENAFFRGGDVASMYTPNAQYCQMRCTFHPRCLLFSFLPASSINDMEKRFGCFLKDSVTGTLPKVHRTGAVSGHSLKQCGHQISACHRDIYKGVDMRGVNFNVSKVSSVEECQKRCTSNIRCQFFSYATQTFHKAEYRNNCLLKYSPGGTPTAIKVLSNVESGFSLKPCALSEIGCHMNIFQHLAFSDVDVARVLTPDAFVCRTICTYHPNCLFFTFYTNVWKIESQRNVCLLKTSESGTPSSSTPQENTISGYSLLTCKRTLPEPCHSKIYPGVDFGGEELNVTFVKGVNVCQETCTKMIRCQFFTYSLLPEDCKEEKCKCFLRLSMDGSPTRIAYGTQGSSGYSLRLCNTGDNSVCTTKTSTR
# Assay Text: Neat human plasma assay: contact pathway-activated (FXIIa) plasma, PFR-AMC substrate
# Format: biochemical
# Settings: citrated human plasma (78% final), 10 nM human FXIIa, 100 μM PFR-AMC, room temperature
# IC90 annotations
Reported Metric: IC90

- Compound: "Cc1ccnc([C@H]2C[C@@H]2c2cc(N3CC4(COC4)C3)c3ccc(OCc4cn5cc(C6CC6)cc(N6CC(=O)N(C)C6=O)c5n4)cc3n2)n1 [Example 43]"
  Result: "≤ 400 nM"
- Compound: "Cc1ccnc([C@H]2C[C@@H]2c2ccc3ccc(NCc4cn5cc(C6CC6)cc(N6CC(=O)N(C7COC7)C6=O)c5n4)cc3n2)n1 (racemic) [Example 78]"
  Result: "1500 to 10000 nM"
- Compound: "Cc1ccnc([C@H]2C[C@@H]2C2=NS(=O)(=O)c3ccc(NCc4cn5cc(C6CC6)cc(F)c5n4)cc3N2)n1 [Example 105]"
  Result: "≤ 400 nM"
- Compound: "Cc1ccnc([C@H]2C[C@@H]2c2cc(C(C)(C)O)c3ccc(NCc4cn5cc(C6CC6)cc(N6CC(=O)N(C)C6=O)c5n4)cc3n2)n1 (racemic) [Example 95]"
  Result: "400 to 1500 nM"
- Compound: "Cc1ccnc([C@H]2C[C@@H]2C2=NS(=O)(=O)c3ccc(NC(C)c4cn5cc(C6CC6)ccc5n4)cc3N2)n1 (stereo partly drawn) [Example 87]"
  Result: "400 to 1500 nM"
- Compound: "Cc1ccnc(C2CC2c2cc(=O)c3ccc(NCc4cn5cc(C6CC6)cc(N6CC(=O)N(C)C6=O)c5n4)cc3[nH]2)n1 (single isomer, unassigned) [Example 12]"
  Result: "400 to 1500 nM"
- Compound: "Cc1ccnc([C@H]2C[C@@H]2C2=NS(=O)(=O)c3cc(Cl)c(NCc4cn5cc(C6CC6)ccc5n4)cc3N2)n1 (racemic) [Example 89]"
  Result: "1500 to 10000 nM"
- Compound: "Cc1ccnc([C@H]2C[C@@H]2c2cc(CO)c3ccc(NCc4cn5cc(C6CC6)cc(N6CC(=O)N(C)C6=O)c5n4)cc3n2)n1 (racemic) [Example 77]"
  Result: "400 to 1500 nM"
- Compound: "Cc1ccnc([C@H]2C[C@@H]2c2cc(N3CC(O)C3)c3ccc(NCc4cn5cc(C6CC6)cc(N6CC(=O)N(C)C6=O)c5n4)cc3n2)n1 [Example 31]"
  Result: "≤ 400 nM"
- Compound: "Cc1ccnc([C@H]2C[C@@H]2c2cc(N3CC4(COC4)C3)c3ccc(OCc4cc5cc(C6CC6)cc(N6CC(=O)N(C)C6=O)n5n4)cc3n2)n1 [Example 108]"
  Result: "≤ 400 nM"
- Compound: "Cc1ccnc([C@H]2C[C@@H]2c2cc(=O)c3cnc(NCc4cn5cc(C6CC6)cc(N6CC(=O)N(C)C6=O)c5n4)cc3[nH]2)n1 (racemic) [Example 10]"
  Result: "≤ 400 nM"
- Compound: "Cc1ccnc([C@H]2C[C@@H]2c2cc(CC#N)c3ccc(NCc4cn5cc(C6CC6)cc(N6CC(=O)N(C)C6=O)c5n4)cc3n2)n1 (racemic) [Example 85]"
  Result: "1500 to 10000 nM"

Where these numbers come from: patent US20240199613A1
